Can you tell me log10 Ki for the items I'm about to list?
Target: HPK1 (Homo sapiens (Human), UniProt Q92918, S171E/T165E)
Sequence (Q92918 whole entry T165E/S171E): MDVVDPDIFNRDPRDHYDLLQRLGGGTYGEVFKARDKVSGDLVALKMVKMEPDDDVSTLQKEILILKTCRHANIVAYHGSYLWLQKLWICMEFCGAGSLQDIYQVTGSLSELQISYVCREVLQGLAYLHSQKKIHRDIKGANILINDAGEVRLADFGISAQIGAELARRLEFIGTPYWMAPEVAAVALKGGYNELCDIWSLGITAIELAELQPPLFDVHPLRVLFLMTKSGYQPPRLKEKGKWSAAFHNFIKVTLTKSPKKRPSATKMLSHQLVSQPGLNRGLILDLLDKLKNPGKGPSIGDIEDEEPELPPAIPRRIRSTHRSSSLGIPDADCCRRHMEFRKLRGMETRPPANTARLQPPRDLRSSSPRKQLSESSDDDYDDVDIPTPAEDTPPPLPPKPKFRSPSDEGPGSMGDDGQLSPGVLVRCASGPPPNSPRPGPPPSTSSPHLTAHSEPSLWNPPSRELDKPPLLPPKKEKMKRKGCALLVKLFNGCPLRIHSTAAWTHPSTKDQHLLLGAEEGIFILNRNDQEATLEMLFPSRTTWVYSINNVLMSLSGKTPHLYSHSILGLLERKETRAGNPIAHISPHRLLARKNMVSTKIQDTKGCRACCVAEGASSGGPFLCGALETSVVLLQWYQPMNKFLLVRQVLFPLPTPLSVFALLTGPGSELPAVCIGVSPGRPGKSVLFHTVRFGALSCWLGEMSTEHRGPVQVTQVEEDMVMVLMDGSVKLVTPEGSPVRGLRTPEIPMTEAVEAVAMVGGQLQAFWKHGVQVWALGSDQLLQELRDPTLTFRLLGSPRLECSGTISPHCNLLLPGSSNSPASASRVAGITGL
Test: HPK1-FL HTRF Enzymatic Assay (HTRF)
Type: biochemical
Settings: HPK full length T165E S171E 0.125 nM, ATP 1 mM, Biotin-SLP76 100 nM, read-out: HPK1 Ki (nM), H = HTRF
Note the log scale: values are log10 of Ki expressed in nM.

Input line: Reported log10 Ki for HPK1 (Homo sapiens (Human), UniProt Q92918, S171E/T165E), given `Cc1ccncc1-c1cc2cc(Nc3cc4n(n3)CC(=O)N(C(C)C)CC4)ncc2cc1F` ?
Output line: 0.40

Input line: # query: log10 Ki | item `Cc1ccncc1-c1cc2cc(Nc3cc4n(n3)CC(=O)N(C)CC4)ncc2c(Cl)c1F` | system: HPK1 (Homo sapiens (Human), UniProt Q92918, S171E/T165E)
Output line: 0.66

Input line: Request: log10 Ki, test system HPK1 (Homo sapiens (Human), UniProt Q92918, S171E/T165E), entry Cc1c(-c2cc3cc(Nc4cc5n(n4)CC(=O)N([C@@H](C)CO)CC5)ncc3cc2F)cnc2c1NCCO2 (single isomer, unassigned) [Compound 148a]
Output line: -1.89

Input line: Hello, I am looking for reported log10 Ki with HPK1 (Homo sapiens (Human), UniProt Q92918, S171E/T165E) for Cc1c(-c2cc3cc(Nc4cc5n(n4)CC(=O)N([C@@H](C)C#N)CC5)ncc3cc2F)cnc2c1NCCO2 (single isomer, unassigned) [Compound 147a] . Could you help?
Output line: -1.85

Input line: Provide the documented log10 Ki with HPK1 (Homo sapiens (Human), UniProt Q92918, S171E/T165E) as the system for `Cc1cc(CN)ccc1-c1cc2cc(Nc3cc4n(n3)CC(=O)N(C)CC4)ncc2cc1F`
Output line: 1.40

Input line: Please state recorded log10 Ki (tested on HPK1 (Homo sapiens (Human), UniProt Q92918, S171E/T165E)) of `Cc1c(N)cncc1-c1cc2cc(Nc3cc4n(n3)CC(=O)N(C(C)C)CC4)ncc2cc1C#N`
Output line: -0.41

Input line: What reported log10 Ki corresponds to `Cc1c(N)cncc1-c1ccc2cnc(Nc3cc4n(n3)CC(=O)N(C(C)C)CC4)cc2c1` on HPK1 (Homo sapiens (Human), UniProt Q92918, S171E/T165E)?
Output line: -1.40

Input line: # returns recorded log10 Ki (system: HPK1 (Homo sapiens (Human), UniProt Q92918, S171E/T165E)) for Cc1c(-c2cc3cc(Nc4cc5n(n4)CS(=O)(=O)N(C)C5)ncc3cc2F)cnc2c1NCC[C@@H]2O (single isomer, unassigned) [Compound 242a]
Output line: -0.34

Input line: Enter reported log10 Ki observed with HPK1 (Homo sapiens (Human), UniProt Q92918, S171E/T165E) for `Cc1c(N)cncc1-c1cc2cc(Nc3cc4n(n3)Cc3nccn3CC4)ncc2cc1F`
Output line: -1.52

Input line: Give HPK1 (Homo sapiens (Human), UniProt Q92918, S171E/T165E) log10 Ki for `CNCc1cc(-c2ccc3cnc(Nc4cc5n(n4)CC(=O)N(C)CC5)cc3c2)c(F)cc1C`
Output line: 2.25

Input line: I'm curious: which log10 Ki was measured for Cc1c(-c2cc3cc(Nc4cc5n(n4)Cc4nccn4CC5)ncc3cc2F)cnc2c1NCC[S+]2[O-] (racemic) tested on HPK1 (Homo sapiens (Human), UniProt Q92918, S171E/T165E)?
Output line: -0.32

Input line: Form: Entry = `Cc1c(N)cnnc1-c1cc2cc(Nc3cc4n(n3)CC(=O)N(C)CC4)ncc2cc1F` | System = HPK1 (Homo sapiens (Human), UniProt Q92918, S171E/T165E) | log10 Ki = ____
Output line: 0.36

Input line: Give recorded log10 Ki with HPK1 (Homo sapiens (Human), UniProt Q92918, S171E/T165E) for the following compound: Cc1c(-c2cc3cc(Nc4cc5n(n4)Cc4nccn4CC5)ncc3cc2F)cnc2c1NCC[C@H]2O (single isomer, unassigned) [Compound 243b]
Output line: -1.70

Input line: Item: `Cc1c(-c2cc3cc(Nc4cc5n(n4)CC(=O)N(C(C)C)CC5)ncc3cc2F)cnc2oc(=O)[nH]c12` Test system: HPK1 (Homo sapiens (Human), UniProt Q92918, S171E/T165E) Read-out: log10 Ki Value: ?
Output line: 0.28

Input line: What reported log10 Ki corresponds to `Cc1c(N)cncc1-c1cc2cc(Nc3cc4n(n3)CC(=O)N(C(C)C)CC4)ncc2c(C)c1F` on HPK1 (Homo sapiens (Human), UniProt Q92918, S171E/T165E)?
Output line: -1.10

Input line: // map `Cc1c(-c2cc3cc(Nc4cc5n(n4)CC(=O)N(C)CC5)ncc3cc2F)cnc2c1NCCS2(=O)=O` to recorded log10 Ki (system: HPK1 (Homo sapiens (Human), UniProt Q92918, S171E/T165E))
Output line: -0.56

Input line: Give HPK1 (Homo sapiens (Human), UniProt Q92918, S171E/T165E) log10 Ki for `Cc1c(N)cncc1-c1cc2cc(Nc3cc4n(n3)CC(=O)N(C(C)C)CC4)ncc2c(F)c1F`
Output line: -1.19

Input line: Find the measured log10 Ki: item `Cc1c(-c2cc3cc(Nc4cc5n(n4)CC(=O)NCC5)ncc3cc2F)cnc2c1NCCOC2` , target or system HPK1 (Homo sapiens (Human), UniProt Q92918, S171E/T165E).
Output line: -0.10

Input line: So what log10 Ki did `Cc1c(N)cncc1-c1cc2cc(Nc3cc4n(n3)CC(=O)N(C)CC43CC3)ncc2cc1F` get with HPK1 (Homo sapiens (Human), UniProt Q92918, S171E/T165E)?
Output line: -2.00

Input line: Find log10 Ki (HPK1 (Homo sapiens (Human), UniProt Q92918, S171E/T165E)) for the entry `Cc1c(-c2cc3cc(Nc4cc5n(n4)CC(=O)NCC5)ncc3cc2F)cnc2c1NCCO2`
Output line: -1.89

Input line: What is its log10 Ki for HPK1 (Homo sapiens (Human), UniProt Q92918, S171E/T165E)? Entry: `CNc1cncc(-c2cc3cc(Nc4cc5n(n4)CC(=O)NCC5)ncc3cc2F)c1C`
Output line: -1.59
